- targetDesc: T1, murine heparanase (murine, UniProt Q6YGZ1 28-535, limits assumed)
- T1 construct: also called Mouse; recombinant murine heparanase
- T1 sequence (looked up): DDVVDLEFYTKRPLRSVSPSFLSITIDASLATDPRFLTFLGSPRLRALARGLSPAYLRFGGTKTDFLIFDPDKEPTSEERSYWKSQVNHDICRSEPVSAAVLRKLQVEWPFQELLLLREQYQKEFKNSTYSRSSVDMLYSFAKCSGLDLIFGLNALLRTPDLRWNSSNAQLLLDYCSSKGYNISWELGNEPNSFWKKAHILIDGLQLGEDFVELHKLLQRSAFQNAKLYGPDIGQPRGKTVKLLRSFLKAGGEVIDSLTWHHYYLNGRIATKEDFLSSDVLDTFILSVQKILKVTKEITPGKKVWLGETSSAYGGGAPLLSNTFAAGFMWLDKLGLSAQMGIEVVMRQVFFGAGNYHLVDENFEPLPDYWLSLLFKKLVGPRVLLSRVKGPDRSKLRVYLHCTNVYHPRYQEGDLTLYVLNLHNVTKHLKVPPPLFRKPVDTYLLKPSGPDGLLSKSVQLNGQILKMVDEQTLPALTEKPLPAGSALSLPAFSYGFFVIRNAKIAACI
- measurementDescription: cross species capture ELISA, heparanase captured by rabbit anti-heparanase antibody, exhaustive supernatant 1:5, anti-human IgG Fc detection
quantity: OD, binding to heparanase (Mouse) (OD units)
Write the number in OD units without appending the unit.

Example results:
monoclonal antibody 7B9.1 (antibody, V domains shown, Fully human (XenoMouse) antibody) VH: QVQLVESGGGVVQPGRSLRLSCAASGFTFSSYGMHWVRQAPGKGLEWVAVIWYDGSNKYYADSVKGRFTISRDNSKNTLYLQMNSLRAEDTAVYYCAREGAPYSSSDAFDIWGQGTMVTVSS VL: QSVLTQPPSVSGAPGQRVTISCTGSSSNIGANYDVHWYQQLPGTAPKLLIYGDNNRPSGVPDRFSGSKSGTSASLAITGLQAEDEADYYCQSYDSSLSGSVFGGGTKLTVL
0.58
monoclonal antibody 16E1.1 (antibody, V domains shown, Fully human (XenoMouse) antibody) VH: QVQLQESGPGLVKPSQTLSLTCTVSGGSISSGGYYWSWIRQHPGKGLEWIGFIYYSGSTFYNPSLKSRITISVDTSKNQFSLKLSSVTAADTAVYYCARPYSSSWYGAFDIWGQGTMVTVSS VL: SYELTQPPSVSVSPGRTASITCSEDKLGNKYAYWYQQKPGQSPVLVIYQDSERPSGIPERFSGSNSGNTATLTISGTQAMDEADYYCQAWDSSTVVFGGGTKLTVL
0.63

Kindly consider the entry below.
Return OD, binding to heparanase (Mouse) (reported value) for this binder: monoclonal antibody 15A11.1 (antibody, V domains shown, Fully human (XenoMouse) antibody; also called ATCC PTA-9490) VH: QVQLVQSGAEVKKPGASVKVSCKVSGDTLTELSMHWVRQTPGKGLEWMGGFDPEDGETIYAQKFQGRVTMTGDTSTDTAYMELSSLRSEDTAVYYCATEGDYGDSEEYYYYYGMDVWGQGTTVTVSS VL: DIQMTQSPSSLSASVGDRVTITCRASQGISNYLAWYQQKPGKVPKLLIYAASTLQSGVPSRFSGSGSGTDFTLTISSLQPEDVATYYCQKYNRAPFTFGPGTKVDIK
0.17

# credit: patent US20100233154A1
